molecular target: hTLR8 (Homo sapiens); experiment: Human TLR8 Reporter Assay; conditions: HEK-Blue hTLR8 cells, 16 hours, normalized to tl8-506 (1 μM) and DMSO
readout_type: EC50 (µM)
Report as a plain number; the unit µM is understood.

molecule	observed_result
CCCCNc1nc(N)nc2cn(Cc3ccc(CN4CCN(C(=O)CN5C(=O)C=CC5=O)CC4)cc3OC)nc12 [Compound 105]	6.4
CCCCNc1nc(N)nc2cn(Cc3c(OCC)cccc3OCC)nc12 [Compound 40]	0.813
CCCCNc1nc(N)nc2cn(Cc3c(OC)cc(CNC)cc3OC)nc12 [Compound 109]	0.0998

Query: Requested read-out: EC50. Entry: C=CC(=O)NC[C@H]1CC[C@H](C(=O)N2CCN(c3ccc(Cn4cc5nc(N)nc(NCCCC)c5n4)c(OC)c3)CC2)CC1 [Compound 120]
Response: 2.22

---

Target: hTLR7 (Homo sapiens, UniProt Q9NYK1)
Test: Human TLR7 Reporter Assay
Details: HEK-Blue hTLR7 cells, 16 hours, normalized to CL097 (6 μM) and DMSO
Procedure: HEK-Blue™ hTLR7 cells (Invivogen, San Diego, Calif.) were maintained at 37° C./5% CO2/90% relative humidity in Dulbecco's Modified Eagle's Medium with 10% fetal bovine serum, 100 units/mL penicillin, 100 μg/mL streptomycin, 100 μg/mL normocin, 10 μg/mL blasticidin, and 100 μg/mL zeocin. HEK-Blue™ hTLR7 cells were maintained at 10-90% confluence and used before passage 20. […] Calculated % effects were fit using a 4-parameter algorithm, and EC50 was reported.
Reported EC50 maps to class as: band 1 = under 500 nM, band 2 = from 500 nM up to 2000 nM, band 3 = 2000 nM and over

The examples below pair each entry with its known result.
compound	assigned_label
CCC[C@@H](CO)Nc1nc(N)nc2cn(Cc3ccc(N4CCNCC4)cc3OC)nc12	band 2
CCCCNc1nc(N)nc2cn(Cc3ccc(C(C)NCCC)cc3OC)nc12 (centres unmarked) [Compound 217]	band 1
CCCCNc1nc(N)nc2cn(Cc3nnco3)nc12	band 3

Moving on to the next compound.
Query: Using the reported EC50, which band applies to CCCCNc1nc(N)nc2cn(Cc3cccnc3OC)nc12 ?
Response: band 1

---

Biological target: hTLR8 (Homo sapiens, UniProt Q9NR97)
Sequence (Q9NR97 27-1041): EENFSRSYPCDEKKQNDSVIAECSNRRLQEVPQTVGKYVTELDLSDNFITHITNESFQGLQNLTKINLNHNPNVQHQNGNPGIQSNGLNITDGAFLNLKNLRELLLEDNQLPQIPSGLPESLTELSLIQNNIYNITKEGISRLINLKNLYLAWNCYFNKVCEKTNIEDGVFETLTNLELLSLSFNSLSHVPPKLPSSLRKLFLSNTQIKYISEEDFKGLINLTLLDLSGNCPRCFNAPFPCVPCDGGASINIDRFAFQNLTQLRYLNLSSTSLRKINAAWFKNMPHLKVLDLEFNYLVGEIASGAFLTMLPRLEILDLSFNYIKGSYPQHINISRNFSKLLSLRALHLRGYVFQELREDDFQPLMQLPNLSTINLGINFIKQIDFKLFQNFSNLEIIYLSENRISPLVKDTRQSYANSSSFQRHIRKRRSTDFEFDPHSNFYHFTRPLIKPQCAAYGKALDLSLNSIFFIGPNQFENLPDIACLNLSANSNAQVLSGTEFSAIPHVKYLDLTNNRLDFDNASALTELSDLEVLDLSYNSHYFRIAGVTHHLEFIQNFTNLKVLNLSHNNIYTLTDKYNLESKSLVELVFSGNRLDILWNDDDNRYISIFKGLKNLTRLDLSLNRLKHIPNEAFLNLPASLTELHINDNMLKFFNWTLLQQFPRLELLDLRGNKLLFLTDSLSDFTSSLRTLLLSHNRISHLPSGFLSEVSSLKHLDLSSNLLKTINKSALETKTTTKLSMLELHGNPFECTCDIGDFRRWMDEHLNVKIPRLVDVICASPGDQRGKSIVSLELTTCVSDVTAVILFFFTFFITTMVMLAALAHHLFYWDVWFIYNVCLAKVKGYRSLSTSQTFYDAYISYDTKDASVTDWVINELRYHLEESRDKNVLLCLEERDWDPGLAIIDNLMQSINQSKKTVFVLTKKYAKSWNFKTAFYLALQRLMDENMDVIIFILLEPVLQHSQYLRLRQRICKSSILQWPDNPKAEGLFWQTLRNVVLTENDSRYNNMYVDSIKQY
Test: Human TLR8 Reporter Assay
Details: HEK-Blue hTLR8 cells, 16 hours, normalized to tl8-506 (1 μM) and DMSO
Labelling field: enter MET if recorded EC50 is less than 3 µM. Enter NOT MET if it equals or exceeds that cut-off.

Query: Criterion: EC50 strictly below 3 µM. Is it met by CCCCNc1nc(N)nc2cn(CCc3ccccc3OC)nc12 ?
Response: NOT MET

Query: Regarding CCCCNc1nc(N)nc2cn(Cc3cn(C)nc3OC)nc12 , kindly confirm whether its EC50 is beneath 3 µM.
Response: MET

Query: Given CCCCNc1nc(N)nc2cn(Cc3ccccc3C)nc12 , is recorded EC50 strictly lower than 3 µM?
Response: NOT MET

Query: Is EC50 strictly under 3 µM for the entry CCCCNc1nc(N)nc2cn(Cc3ccc(CN)cn3)nc12 ?
Response: NOT MET

Query: Just wondering, is EC50 of CCCCNc1nc(N)nc2cn(Cc3c(OC)cc(CN4C(=O)C=CC4=O)cc3OC)nc12 below 3 µM?
Response: MET

Query: Strictly below 3 µM: is that where EC50 of CCCCNc1nc(N)nc2cn(Cc3c(OC)cc(CNC(=O)CCN4C(=O)C=CC4=O)cc3OC)nc12 sits?
Response: NOT MET

Query: I'd appreciate it if you could check whether CCCCNc1nc(N)nc2cn(Cc3ccc(CCNC)cc3OC)nc12 has EC50 smaller than 3 µM.
Response: MET

Query: Take the compound CCCCNc1nc(N)nc2cn(Cc3ccc(N4CC5(CN(CCN6C(=O)C=CC6=O)C5)C4)cc3OC)nc12 and say whether its EC50 is less than 3 µM.
Response: NOT MET

Query: Would you kindly verify if EC50 of CCCCNc1nc(N)nc2cn(Cc3ccc(CN4CC(CN)C4)cc3OC)nc12 is strictly less than 3 µM?
Response: MET

---

Target: hTLR7 (Homo sapiens, UniProt Q9NYK1)
Sequence (Q9NYK1 27-1049): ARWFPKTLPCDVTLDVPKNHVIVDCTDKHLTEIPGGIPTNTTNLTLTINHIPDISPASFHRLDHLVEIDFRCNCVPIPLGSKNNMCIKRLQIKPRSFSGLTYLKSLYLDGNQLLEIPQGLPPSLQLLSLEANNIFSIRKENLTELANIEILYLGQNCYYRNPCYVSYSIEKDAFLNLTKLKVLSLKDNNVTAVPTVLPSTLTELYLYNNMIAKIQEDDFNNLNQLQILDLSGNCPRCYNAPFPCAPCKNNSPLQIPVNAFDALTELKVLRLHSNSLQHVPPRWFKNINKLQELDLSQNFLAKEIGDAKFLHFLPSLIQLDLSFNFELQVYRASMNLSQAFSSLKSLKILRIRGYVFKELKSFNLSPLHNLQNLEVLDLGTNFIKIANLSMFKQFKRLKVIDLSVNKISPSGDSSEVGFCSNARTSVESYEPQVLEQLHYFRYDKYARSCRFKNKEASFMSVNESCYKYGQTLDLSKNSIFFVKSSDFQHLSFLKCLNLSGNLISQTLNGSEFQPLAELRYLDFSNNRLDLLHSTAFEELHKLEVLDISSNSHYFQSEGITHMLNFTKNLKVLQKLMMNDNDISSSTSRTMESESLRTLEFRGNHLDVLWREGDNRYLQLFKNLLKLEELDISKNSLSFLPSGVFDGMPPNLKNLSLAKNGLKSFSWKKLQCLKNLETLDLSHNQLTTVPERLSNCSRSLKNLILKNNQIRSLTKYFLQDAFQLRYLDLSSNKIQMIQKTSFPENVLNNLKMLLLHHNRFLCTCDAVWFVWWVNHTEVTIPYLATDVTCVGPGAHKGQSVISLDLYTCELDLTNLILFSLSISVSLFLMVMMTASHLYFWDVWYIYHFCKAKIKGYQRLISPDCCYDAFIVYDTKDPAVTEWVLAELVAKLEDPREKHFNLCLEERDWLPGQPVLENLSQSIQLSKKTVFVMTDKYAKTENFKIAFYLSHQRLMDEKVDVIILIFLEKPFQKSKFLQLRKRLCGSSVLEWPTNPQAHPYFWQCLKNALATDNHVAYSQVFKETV
Assay: Human TLR7 Reporter Assay
Conditions: HEK-Blue hTLR7 cells, 16 hours, normalized to CL097 (6 μM) and DMSO
readout_type: pEC50
// pEC50 here means minus log10 of the molar concentration (mol/L)

compound	pEC50
COc1ccccc1Cn1cc2nc(N)nc(N3CCC(CO)C3)c2n1 (centres unmarked)	5.61
CCCCNc1nc(N)nc2cn(Cc3cc(N4CCNCC4)ccc3OC)nc12	6.02
CCCCNc1nc(N)nc2cn(Cc3ccc(CN)cn3)nc12	6.45
CCCCNc1nc(N)nc2cn(CCc3ccccc3OC)nc12	5.51
CCCCNc1nc(N)nc2cn(Cc3ccon3)nc12	6.12
CCCC(Nc1nc(N)nc2cn(Cc3c(OC)cccc3OC)nc12)C(F)(F)F (centres unmarked) [Compound 124]	6.58

Query: # query: pEC50 of entry CCCCNc1nc(N)nc2cn(Cc3ccc(CN4CC(CN5C(=O)C=CC5=O)C4)cc3OC)nc12
Response: 5.91

Query: # lookup: pEC50 of CCCCNc1nc(N)nc2cn(Cc3c(OC)cc(CN4CC(N)C4)cc3OC)nc12
Response: 6.19
